System: L1210
Test: Antitumor activity against mouse L1210 cells allografted in BDF1 mouse assessed as survival at 200 mg/kg, ip administered as single dose measured on day 30 relative to vehicle-treated control
Type: functional, organism-based
Design: dose 200 mg/kg
The source made the active and inactive calls. The rule behind the calls is not given here.
Entry note: the call must match one of YES (active), NO (inactive)

Answered examples (3):
[
  {
    "Input smiles": "CCCC(=O)OC[C@H]1O[C@@H](n2ccc(N)nc2=O)[C@@H](O)[C@@H]1OC(=O)CCC",
    "Label value": "NO"
  },
  {
    "Input smiles": "CCCCCCCC(=O)O[C@H]1[C@H](O)[C@H](n2ccc(N)nc2=O)O[C@@H]1CO",
    "Label value": "NO"
  },
  {
    "Input smiles": "Nc1ccn([C@@H]2O[C@H](CO)[C@@H](O)[C@@H]2O)c(=O)n1",
    "Label value": "NO"
  }
]

Query :: What did the test return for CCCCCCCCCCCCCC(=O)O[C@H]1[C@H](O)[C@H](n2ccc(N)nc2=O)O[C@@H]1CO ?
Result :: YES

---

Test system: L1210
Assay: Antitumor activity against mouse L1210 cells allografted in BDF1 mouse assessed as survival at 100 mg/kg, ip administered as single dose measured on day 30 relative to vehicle-treated control
Format: functional, organism-based
Design: dose 100 mg/kg
Activity calls are given as the source filed them. No cut-off for these calls is given here.
Reported property: Activity

Some compounds with known Activity results, for comparison:
[
  {
    "Input smiles": "CCCCCCCCCCCCCCCCCCCC(=O)O[C@H]1[C@H](O)[C@H](n2ccc(N)nc2=O)O[C@@H]1CO",
    "Target under test": "L1210",
    "Activity": "inactive"
  },
  {
    "Input smiles": "CCCCCC(=O)OC[C@H]1O[C@@H](n2ccc(N)nc2=O)[C@@H](O)[C@@H]1OC(=O)CCCCC",
    "Target under test": "L1210",
    "Activity": "inactive"
  },
  {
    "Input smiles": "CCCC(=O)OC[C@H]1O[C@@H](n2ccc(N)nc2=O)[C@@H](O)[C@@H]1OC(=O)CCC",
    "Target under test": "L1210",
    "Activity": "inactive"
  },
  {
    "Input smiles": "CCCCCCCC/C=C\\CCCCCCCCCCCC(=O)O[C@H]1[C@H](O)[C@H](n2ccc(N)nc2=O)O[C@@H]1CO",
    "Target under test": "L1210",
    "Activity": "Active"
  },
  {
    "Input smiles": "CCCCCCCCCCCCCCCC(=O)OC[C@H]1O[C@@H](n2ccc(N)nc2=O)[C@@H](O)[C@@H]1O",
    "Target under test": "L1210",
    "Activity": "Active"
  }
]

Query :: So what does the record say about Activity for CCCCCCCCCCCCCCCCCCCC(=O)OC[C@H]1O[C@@H](n2ccc(N)nc2=O)[C@@H](O)[C@@H]1OC(=O)CCCCCCCCCCCCCCCCCCC ?
Result :: inactive

Query :: Same read-out for CCCCCCCCCC(=O)OC[C@H]1O[C@@H](n2ccc(N)nc2=O)[C@@H](O)[C@@H]1O ?
Result :: inactive

Query :: Same read-out for CCCCCCCCCCCCCCCCCC(=O)O[C@H]1[C@H](O)[C@H](n2ccc(N)nc2=O)O[C@@H]1CO ?
Result :: Active
